test system: human red blood cell; test: In vitro hemolysis assay; assay type: cell-based; conditions: 16 μg/ml, human RBCs, 37° C., 1 hour
parameter-measured: % hemolysis at 16 μg/ml (%)
Response body: numeric value in %, unit text excluded.

So for CCCCCCCCOc1cccc(OCCCCCCCC)c1C(=O)Nc1ccc(C(=O)OCC[N+](C)(CC)CC)cc1.[Br-] , the logged % hemolysis at 16 μg/ml turned out to be 59

So for CCCCCCCOc1cc(F)ccc1C(=O)Nc1ccc(S(=O)(=O)NCC[N+](CC)(CC)CCCC)cc1.[Br-] , the logged % hemolysis at 16 μg/ml turned out to be 3

So for CCCCCCOc1ccccc1C(=O)Nc1ccc(C(=O)OCC[N+](CC)(CC)CCCCC)cc1.[Br-] , the logged % hemolysis at 16 μg/ml turned out to be 2

So for CCCCCCCCOc1ccccc1C(=O)Nc1ccc(C(=O)OCC[N+](C)(C)C)cc1.[Br-] , the logged % hemolysis at 16 μg/ml turned out to be 7

====

system: S. aureus; experiment: MIC by broth dilution, S. aureus; type: cell-based; details: Staphylococcus aureus; Mueller-Hinton broth, overnight 37° C.; Table 1; read-out: MIC (μg/mL) S. aureus
parameter-measured: MIC

Measured MIC for this entry CCCCCCCCOc1ccccc1C(=O)Nc1ccc(C(=O)OCC[N+](CC)(CC)CCCCCCCC)cc1.[Br-] [Compound 38] on S. aureus: < 3 µg/mL

Measured MIC for this entry CCCCCCCCOc1ccc(C(=O)Nc2ccc(C(=O)OCC[N+](C)(CC)CC)cc2)cc1.[Br-] [Compound 31] on S. aureus: > 30 µg/mL

Measured MIC for this entry CCCCCCCCOc1cccc(C(=O)Nc2ccc(C(=O)OCC[N+](C)(CC)CC)cc2)c1OCCCCCCCC.[Br-] [Compound 14] on S. aureus: > 30 µg/mL

Measured MIC for this entry CCCCCCCCCCCCOc1ccccc1C(=O)Nc1ccc(C(=O)OCC[N+](C)(CC)CC)cc1.[Br-] [Compound 26] on S. aureus: 3 to 30 µg/mL

Measured MIC for this entry CCCCCCCCOc1ccccc1C(=O)Nc1ccc(C(=O)OCC[N+](CC)(CC)CCCCCCC)cc1.[Br-] [Compound 37] on S. aureus: < 3 µg/mL

Measured MIC for this entry CCCCCCCCC[N+](CC)(CC)CCOC(=O)c1ccc(NC(=O)c2ccccc2OCCCCCCCC)cc1.[Br-] [Compound 30] on S. aureus: 3 to 30 µg/mL

Measured MIC for this entry CCCCCCCOc1ccccc1C(=O)Nc1ccc(C(=O)NC2CC[N+](CC)(CCC)CC2)cc1.[Br-] (stereo not shown) [Compound 85] on S. aureus: 3 to 30 µg/mL

====

system: A. baumannii; test: MIC by broth dilution, A. baumannii; assay type: cell-based; details: Acinetobacter baumannii; Mueller-Hinton broth, overnight 37° C.; Table 1; read-out: MIC (μg/mL) A. baumannii
Would you mind telling me the reported MIC of each entry?

Measured MIC for this entry CCCCCCCCOc1ccccc1C(=O)Nc1ccc(C(=O)OCC[N+](CC)(CC)CC2CC2)cc1.[Br-] [Compound 60] on A. baumannii: 3 to 30 µg/mL

Measured MIC for this entry CCCCCCCOc1cc(F)ccc1C(=O)Nc1ccc(S(=O)(=O)NCC[N+](CC)(CC)CCCC)cc1.[Br-] [Compound 95] on A. baumannii: 3 to 30 µg/mL

Measured MIC for this entry CCCCCCOc1ccccc1C(=O)Nc1ccc(C(=O)OCC[N+](CC)(CC)CCCC)cc1.[Br-] [Compound 67] on A. baumannii: > 30 µg/mL

Measured MIC for this entry CCCCCCCCOc1cc(F)ccc1C(=O)Nc1ccc(C(=O)OCC[N+](C)(CC)CC)cc1.[Br-] [Compound 87] on A. baumannii: > 30 µg/mL

Measured MIC for this entry CCCCCCCCOc1ccccc1C(=O)Nc1ccc(C(=O)OCC[N+](CC)(CC)CCC)cc1.[Br-] [Compound 33] on A. baumannii: 3 to 30 µg/mL

Measured MIC for this entry CCCCCCCCOc1ccccc1C(=O)Nc1ccc(C(=O)NC2CC[N+](C)(CC)CC2)cc1.[Br-] (stereo not drawn) [Compound 80] on A. baumannii: > 30 µg/mL

Measured MIC for this entry CCCCCCCOc1ccccc1C(=O)Nc1ccc(S(=O)(=O)NCC[N+](C)(CC)CC)cc1.[Br-] [Compound 79] on A. baumannii: > 30 µg/mL

Measured MIC for this entry CCCCCCCCOc1ccccc1C(=O)Nc1ccc(C(=O)OCC[N+](CC)(CC)Cc2ccc([N+](=O)[O-])cc2)cc1.[Br-] [Compound 39] on A. baumannii: > 30 µg/mL

Measured MIC for this entry CCCCCCOc1ccccc1C(=O)Nc1ccc(C(=O)OCC[N+](CC)(CC)CCCCC)cc1.[Br-] [Compound 68] on A. baumannii: 3 to 30 µg/mL

Measured MIC for this entry CCCCCOc1ccccc1C(=O)Nc1ccc(C(=O)OCC[N+](CC)(CC)CCC)cc1.[Br-] [Compound 64] on A. baumannii: > 30 µg/mL

Measured MIC for this entry CCCCCCCCOc1ccccc1C(=O)Nc1cccc(C(=O)OCC[N+](C)(CC)CC)c1.[Br-] [Compound 12] on A. baumannii: > 30 µg/mL

Measured MIC for this entry CCCCCCCCOc1ccccc1C(=O)Nc1ccccc1C(=O)OCC[N+](C)(CC)CC.[Br-] [Compound 13] on A. baumannii: > 30 µg/mL

Measured MIC for this entry CCCCCCCCOc1ccccc1C(=O)Nc1ccc(C(=O)N2CC[N+](C)(CC)CC2)cc1.[Br-] [Compound 54] on A. baumannii: > 30 µg/mL

Measured MIC for this entry CCCCCCCCOc1ccccc1C(=O)Nc1ccc(C(=O)OCC[N+](CC)(CC)CCCC)cc1.[Br-] [Compound 34] on A. baumannii: 3 to 30 µg/mL

Measured MIC for this entry CCCCCCCOc1ccccc1C(=O)Nc1ccc(C(=O)NC2CC[N+](C)(CC)CC2)cc1.[Br-] (stereo not drawn) [Compound 81] on A. baumannii: > 30 µg/mL
